Below, each entry is listed with its recorded binding signal.
Target: HNF4alpha2 (COS-7 nuclear extract) (Homo sapiens, UniProt P41235 1-474)
Sequence: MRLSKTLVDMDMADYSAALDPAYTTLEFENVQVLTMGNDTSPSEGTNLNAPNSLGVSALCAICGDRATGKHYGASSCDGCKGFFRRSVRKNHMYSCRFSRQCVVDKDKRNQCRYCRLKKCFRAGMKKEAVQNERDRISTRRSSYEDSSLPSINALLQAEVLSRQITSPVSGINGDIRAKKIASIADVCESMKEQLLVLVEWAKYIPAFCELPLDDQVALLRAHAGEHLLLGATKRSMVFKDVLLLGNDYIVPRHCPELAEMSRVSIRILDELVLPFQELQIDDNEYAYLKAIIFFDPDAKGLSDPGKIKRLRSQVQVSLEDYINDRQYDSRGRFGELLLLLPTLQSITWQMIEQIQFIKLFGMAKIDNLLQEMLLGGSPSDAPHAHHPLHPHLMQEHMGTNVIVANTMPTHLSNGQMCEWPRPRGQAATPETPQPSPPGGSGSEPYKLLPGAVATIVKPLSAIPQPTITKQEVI
Assay: protein-binding microarray; COS-7 nuclear extract on double-stranded Agilent 4x180k PBM; binding buffer, salt, pH and temperature not given in the material; high values mean tight binding
Details: chain copies: 2; label: 3' end of strand 1 on the slide; dsDNA, one strand shown
Over roughly 18,000 sequences, “log2 normalized intensity” has its median near 0.39; the highest 2% begin near 6.6. Only a selection was taken, and the highest values are over-represented in it overall.
measurement-kind: binding signal (log2 normalized intensity)

INSERT INTO measurements (seq_text, unit_text, readout_number) VALUES
  ('AAATCCCCGCCTTTGACACAGGCGACCTTCGCCTAGGGAGATTAGAGTATCGGTCGA', 'log2 normalized intensity', 3.94),
  ('ATCCTTCTTGACCAGGCAAGCTTGACCTTTGCCTAGGGAGATTAGAGTATCGGTCGA', 'log2 normalized intensity', 7.07),
  ('TCAGATGAGACTTTGGACTTTTGAACTAAGGCCTAGGGAGATTAGAGTATCGGTCGA', 'log2 normalized intensity', 6.42),
  ('TACAGAATTCTCATGGAGGACTTTGGCCTTGCCTAGGGAGATTAGAGTATCGGTCGA', 'log2 normalized intensity', 7.11),
  ('CACAGCTCGACCTTTGACCTTCGGCTTCCCGCCTAGGGAGATTAGAGTATCGGTCGA', 'log2 normalized intensity', 8.84),
  ('TTATCTCAGATGAGACTTTGGACTTTTGAAGCCTAGGGAGATTAGAGTATCGGTCGA', 'log2 normalized intensity', 7.12),
  ('TAGCCTTATCTCAGATGAGACTTTGGACTTGCCTAGGGAGATTAGAGTATCGGTCGA', 'log2 normalized intensity', 7.96),
  ('TTGGACTTTGTACATTCCAAATACGATAATGCCTAGGGAGATTAGAGTATCGGTCGA', 'log2 normalized intensity', 5.36),
  ('GGGCTTTTGTCACATTCCAGACTTTGTACAGCCTAGGGAGATTAGAGTATCGGTCGA', 'log2 normalized intensity', 4.95),
  ('CCAAACAGAACAAAGTCCAGTAAGGACAGTGCCTAGGGAGATTAGAGTATCGGTCGA', 'log2 normalized intensity', 2.51),
  ('CTTACTTGGCCTGTTTGCTGAAGGCCATGCGCCTAGGGAGATTAGAGTATCGGTCGA', 'log2 normalized intensity', 0.0452),
  ('GAGCAGGGTATCAGTTGAACAGAATAGAGGGCCTAGGGAGATTAGAGTATCGGTCGA', 'log2 normalized intensity', -0.996),
  ('GGTATGTTAGATTAGTGTGCAGCTTTGTGTGCCTAGGGAGATTAGAGTATCGGTCGA', 'log2 normalized intensity', 2.1),
  ('TTGATCCAGGATCCTTCTTGACCAGGCAAGGCCTAGGGAGATTAGAGTATCGGTCGA', 'log2 normalized intensity', -0.434),
  ('GCCCCAGCTCGCTCAGCTGGTTGCCCCTTTGCCTAGGGAGATTAGAGTATCGGTCGA', 'log2 normalized intensity', 4.14),
  ('TCTGGGATGTTGGGAGGAGTGGACTTTGATGCCTAGGGAGATTAGAGTATCGGTCGA', 'log2 normalized intensity', 5.99),
  ('AATTCTCATGGAGGACTTTGGCCTTTTGTGGCCTAGGGAGATTAGAGTATCGGTCGA', 'log2 normalized intensity', 5.77),
  ('CCTTTGACCTTCGGCTTCCCCAGAGAAAGAGCCTAGGGAGATTAGAGTATCGGTCGA', 'log2 normalized intensity', 3.03),
  ('AGCTCGCTCAGCTGGTTGCCCCTTTGACCCGCCTAGGGAGATTAGAGTATCGGTCGA', 'log2 normalized intensity', 7.89),
  ('CTTCAAAGGAGTGGAGGAAGGAAGAAGTGTGCCTAGGGAGATTAGAGTATCGGTCGA', 'log2 normalized intensity', 0.537),
  ('TCTTGACCAGGCAAGCTTGACCTTTGATCCGCCTAGGGAGATTAGAGTATCGGTCGA', 'log2 normalized intensity', 10.2),
  ('AGTGGAGAAATAACATTAATGGAAATGCCTGCCTAGGGAGATTAGAGTATCGGTCGA', 'log2 normalized intensity', -0.84),
  ('GCTCAGCTGGTTGCCCCTTTGACCCTCGGGGCCTAGGGAGATTAGAGTATCGGTCGA', 'log2 normalized intensity', 6.11),
  ('ATCTAGGTGAGGGATGAGGACTTTGATCAGGCCTAGGGAGATTAGAGTATCGGTCGA', 'log2 normalized intensity', 6.01),
  ('TTACAACGCTGTTGTCTGTGACTGGGGTCAGCCTAGGGAGATTAGAGTATCGGTCGA', 'log2 normalized intensity', 3.66),
  ('CCCGCCTTTGACACAGGCGACCTTCGCTCGGCCTAGGGAGATTAGAGTATCGGTCGA', 'log2 normalized intensity', 5.17),
  ('ACTTCAAAGGGTGTTGTGACTACCTGGTTAGCCTAGGGAGATTAGAGTATCGGTCGA', 'log2 normalized intensity', 0.524),
  ('GTACTTTGTACATGGGAATAGACATTCCAGGCCTAGGGAGATTAGAGTATCGGTCGA', 'log2 normalized intensity', 2.04),
  ('TGCTTCTTGGCCTCTTTGTTTACACTGTGAGCCTAGGGAGATTAGAGTATCGGTCGA', 'log2 normalized intensity', 1.53),
  ('GATCCAAAAGACCCAGGTGTGTTGCAACTTGCCTAGGGAGATTAGAGTATCGGTCGA', 'log2 normalized intensity', 0.84),
  ('CAGATGGATTGATAGACTTATCTCAGCCTGGCCTAGGGAGATTAGAGTATCGGTCGA', 'log2 normalized intensity', -0.761),
  ('CTTGACCTTTGATCCAGGCTCAGTGGGCGTGCCTAGGGAGATTAGAGTATCGGTCGA', 'log2 normalized intensity', 4.91),
  ('ATTTGACCCTTGGCCAGGTGCAGTGGCTCAGCCTAGGGAGATTAGAGTATCGGTCGA', 'log2 normalized intensity', 2.99),
  ('GGGACTAGCCTTATCTCAGATGAGACTTTGGCCTAGGGAGATTAGAGTATCGGTCGA', 'log2 normalized intensity', 1.7),
  ('TTAGGATGACCTTTAGATTCTTACAGGCAAGCCTAGGGAGATTAGAGTATCGGTCGA', 'log2 normalized intensity', 3.63),
  ('TCCAGGCTTGTCCTTTTGACCACAGTTATCGCCTAGGGAGATTAGAGTATCGGTCGA', 'log2 normalized intensity', 2.33),
  ('CAGGGTGGGGTCTCGCTGCTTCGGCCTTTGGCCTAGGGAGATTAGAGTATCGGTCGA', 'log2 normalized intensity', 1.33);
